Entries and their measured pKi follow.
target desc: rat MCH1 receptor (Rattus norvegicus, UniProt P97639)
Construct: operatively linked to DNA encoding the rat MCH1 receptor so as to permit expression thereof
Sequence (P97639 whole entry): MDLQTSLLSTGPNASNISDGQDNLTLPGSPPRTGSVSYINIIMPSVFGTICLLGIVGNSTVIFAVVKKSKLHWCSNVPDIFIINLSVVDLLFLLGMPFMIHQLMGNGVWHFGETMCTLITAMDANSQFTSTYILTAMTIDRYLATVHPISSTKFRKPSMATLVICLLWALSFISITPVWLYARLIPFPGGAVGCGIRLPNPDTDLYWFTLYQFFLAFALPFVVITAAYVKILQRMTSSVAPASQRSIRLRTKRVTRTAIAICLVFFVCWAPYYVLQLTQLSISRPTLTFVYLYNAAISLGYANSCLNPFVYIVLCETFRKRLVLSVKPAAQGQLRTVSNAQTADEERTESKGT
assay method text: Radioligand binding assay at cloned rat MCH1 receptor ([3H]Compound A)
stated conditions: cloned rat MCH1, Peakr293 cell membranes, 0.08 nM [3H]Compound A, 25° C., 90 minutes; read-out: Ki(MCH-1)
Give only the number. pKi is defined as minus log10 of concentration in molar units.

Worked cases, pKi given:
- molecule: "Cc1ccc(NC(=O)C(C)C)cc1C1CCN(CCCNC(=O)C2(c3ccc(Cl)cc3)CCCCC2)CC1 [Example 85]"
  value observed: 8.34
- molecule: "O=C(Nc1cccc(C2CCN(CCCNC(=O)C(c3ccc(F)cc3)c3ccc(F)cc3)CC2)c1)C1CC1 [Example 120]"
  value observed: 9.40

For the next question, use this molecule.
Notebook: CC(C)C(=O)Nc1cccc(C2CCN(CCCNC(=O)C(C)(c3ccccc3)c3ccccc3)CC2)c1 [Example 30] , pKi read as 8.28
